experimental.protocol: Tissue distribution of SHR9146 in mice after oral gavage of 40 mg/kg
Assay type: in vivo, ICR mice
particulars: male, ICR, mouse, small intestine, po, 40 mg/kg, male, 1 h, 40 mg/kg oral gavage, individual mice; read-out: SHR9146 concentration in Small intestine
test.readout: concentration at 1 h
Please give the number followed by its unit.

Query string: Form field: reported concentration at 1 h of OCCn1cc(-c2ccc(N3CCC([C@H]4c5c(F)cccc5-c5cncn54)CC3)cc2)cn1
Result string: 19200 ng/g

====

experimental.protocol: Plasma pharmacokinetics of SHR9146 in mice (LC-MS/MS, non-compartmental analysis)
Format: in vivo, ICR mice
particulars: both sexes, ICR, mouse, plasma, intravenous, 5 mg/kg, 5 mg/kg i.v.; 0.25 h; read-out: plasma drug concentration, mean (n=6)
test.readout: concentration at 0.25 h (ng/mL)
Kindly provide the numeric value in ng/mL only, without the unit symbol.

Query string: Form field: reported concentration at 0.25 h of OCCn1cc(-c2ccc(N3CCC([C@H]4c5c(F)cccc5-c5cncn54)CC3)cc2)cn1 [SHR9146]
Result string: 5230
